B1: Azoarcus group I ribozyme (parent)
chain: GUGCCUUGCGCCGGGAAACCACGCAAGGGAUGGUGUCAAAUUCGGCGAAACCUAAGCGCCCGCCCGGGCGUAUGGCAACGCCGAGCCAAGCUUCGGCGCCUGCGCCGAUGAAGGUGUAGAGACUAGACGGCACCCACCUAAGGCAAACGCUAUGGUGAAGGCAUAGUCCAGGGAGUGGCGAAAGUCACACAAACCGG

- Variants of: B1
- test: reverse-splicing fitness (ratio to wild type); higher = more active; in vitro selection; Mg2+ level not given
Could you label it Yes if measured reverse-splicing fitness is 0.007 or higher, and No otherwise?

[Q] State whether the measured reverse-splicing fitness reaches 0.007, counting equality as reaching it, for C82A A111G A145U C150A C169U U176C
[A] Yes

[Q] Consider next the variant C82U A111C A120U A145C C150G C169A in the same way.
[A] No
